- Tested on: rodent lifetime carcinogenesis bioassay, tumor incidence TD50
- Method notes: carcinogenic potency in animals, long-term in vivo studies, CPDB compilation (AID 1745844)
- Condition summary: rat; strain Buffalo; females; in feed; site: kidney; lesion: several types; types named in the paper; dosed 46 weeks; study length 64 weeks
Measure name: TD50

Structure notation	Target of assay	Measure name	Obs value
O=CNNc1nc(-c2ccc([N+](=O)[O-])o2)cs1	rodent lifetime carcinogenesis bioassay, tumor incidence TD50	TD50	17.5 mg/kg/day

====

- System: rodent lifetime carcinogenesis bioassay, tumor incidence TD50
- Method notes: carcinogenic potency in animals, long-term in vivo studies, CPDB compilation (AID 1745844)
- Condition summary: mouse; strain B6C3F1; males; in drinking water; site: all sites; lesion: hemangioma + hemangiosarcoma; dosed 90 weeks; study length 91 weeks

Structure notation	Value units	TD50
C1COCCO1	mg/kg/day	3150
